FYI, the data here is from the supplement of paper PMC4862054.

Would you mind telling me the reported EC50, CellTox Green of each entry?
tested on: MDA-MB-231; settings: 72 h
Please provide the amount together with its unit, number first.

Known results for compounds:
Lab note: need EC50, CellTox Green with MDA-MB-231 for entry C#Cc1cccc(Nc2ncnc3cc(OC)c(OCCCCCCC(=O)NO)cc23)c1 , please look it up.
403 nM

Now this one: CC(C)C[C@H](NC(=O)[C@H](Cc1ccccc1)NC(=O)c1cnccn1)B(O)O
13.9 nM

Please state EC50, CellTox Green for every compound in the list that follows.
1. Cn1c(=O)c(F)c(Nc2ccc(I)cc2F)c2c(=O)n(C[C@@H](O)CO)cnc21
2. COC1=C2C[C@@H](C)C[C@H](OC)[C@H](O)[C@@H](C)/C=C(\C)[C@H](OC(N)=O)[C@@H](OC)/C=C\C=C(/C)C(=O)NC(=CC1=O)C2=O
3. COc1ncc(-c2ccc3nccc(-c4ccnnc4)c3c2)cc1NS(=O)(=O)c1ccc(F)cc1F

1: 54.6 nM; 2: 4120 nM; 3: 157 nM

====

tested on: MFM-223; test: normalised viability (% of control), CellTiter-Blue; higher = more viable cells (about 100 = DMSO control); conditions: 100 nM; incubation time: 72 h
So basically, if normalised viability comes in under 90% it's true, and if it's 90% or more it's false.

A selection of reference data follows.
I wonder whether COc1cc(Nc2ncc(F)c(Nc3ccc4c(n3)NC(=O)C(C)(C)O4)n2)cc(OC)c1OC has normalised viability below 90%. Can you tell?
false

Now this one: COC1=C2C[C@@H](C)C[C@H](OC)[C@H](O)[C@@H](C)/C=C(\C)[C@H](OC(N)=O)[C@@H](OC)/C=C\C=C(/C)C(=O)NC(=CC1=O)C2=O
true

Now this one: O=P(O)(NCCCl)NCCCl [Ifosfamide mustard]
false

Now this one: COC(=O)C[C@](O)(CCCC(C)(C)O)C(=O)O[C@@H]1C(OC)=C[C@]23CCCN2CCc2cc4c(cc2[C@H]13)OCO4 [Omacetaxine mepesuccinate]
true

Now this one: O=c1[nH]cc(F)c(=O)[nH]1
false

Turning to the following molecule.
I wonder whether C#Cc1cccc(Nc2ncnc3cc(OC)c(OCCCCCCC(=O)NO)cc23)c1 has normalised viability below 90%. Can you tell?
true

====

tested on: Hs578T; assay: normalised response (% of control), CellTiter-Glo; higher = more viable cells (100 = DMSO, 0 = benzethonium chloride kill control); conditions: incubation time: 72 h
Decide by normalised response: equal to or exceeding 20% means TRUE, less means FALSE.

A selection of reference data follows.
Check this compound for normalised response at or above 20%: O=C(c1ccc(OCCN2CCCCC2)cc1)c1c(-c2ccc(O)cc2)sc2cc(O)ccc12 [Raloxifene] (10000 nM)
TRUE

Now this one: CN(c1ccccc1CNc1nc(Nc2ccc3c(c2)CC(=O)N3)ncc1C(F)(F)F)S(C)(=O)=O (10000 nM)
TRUE

Now this one: Cc1cc(C(C)Nc2ccccc2)c2nc(N3CCOCC3)cc(=O)n2c1 (stereo not drawn) [TGX-221] (10000 nM)
TRUE

Further cases:
Check this compound for normalised response at or above 20%: O=c1[nH]c(=O)n([C@H]2C[C@H](O)[C@@H](CO)O2)cc1F [Floxuridine] (10000 nM)
TRUE

Now this one: COc1cc(Nc2ncc(F)c(Nc3ccc4c(n3)NC(=O)C(C)(C)O4)n2)cc(OC)c1OC [Tamatinib] (10000 nM)
TRUE

Now this one: COc1ncc(-c2ccc3nccc(-c4ccnnc4)c3c2)cc1NS(=O)(=O)c1ccc(F)cc1F (1000 nM)
FALSE

Now this one: COc1cccc2c1C(=O)c1c(O)c3c(c(O)c1C2=O)C[C@@](O)(C(C)=O)C[C@@H]3O[C@H]1C[C@H](N)[C@H](O)[C@H](C)O1 [Daunorubicin] (1000 nM)
TRUE

Now this one: CC(C)C[C@H](NC(=O)[C@H](Cc1ccccc1)NC(=O)c1cnccn1)B(O)O [Bortezomib] (1000 nM)
FALSE
